# targetEntity: Gal(b1-3)[Fuc(a1-4)]GlcNAc(b1-3)Gal(b1-4)[Fuc(a1-3)]GlcNAc
# experimentSummary: glycan array binding signal (z-score within array); higher = stronger binding
# conditionContext: glycan notation: IUPAC condensed, linker removed
The sample as a whole holds a higher share of the strongest signals than the screen did.
measuredParameter: glycan array binding signal (z-score)

{"columns": ["binder", "val"],
 "data": [
  ["Clone646PsrP (Streptococcus pneumoniae) (protein) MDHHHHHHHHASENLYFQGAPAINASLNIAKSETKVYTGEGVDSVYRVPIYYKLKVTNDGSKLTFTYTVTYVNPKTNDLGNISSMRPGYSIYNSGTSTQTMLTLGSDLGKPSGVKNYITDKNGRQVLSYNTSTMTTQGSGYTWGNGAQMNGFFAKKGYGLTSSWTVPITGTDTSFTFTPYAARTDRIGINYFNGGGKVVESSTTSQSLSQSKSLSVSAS", -0.797],
  ["Epa3to1 (Candida glabrata) (protein) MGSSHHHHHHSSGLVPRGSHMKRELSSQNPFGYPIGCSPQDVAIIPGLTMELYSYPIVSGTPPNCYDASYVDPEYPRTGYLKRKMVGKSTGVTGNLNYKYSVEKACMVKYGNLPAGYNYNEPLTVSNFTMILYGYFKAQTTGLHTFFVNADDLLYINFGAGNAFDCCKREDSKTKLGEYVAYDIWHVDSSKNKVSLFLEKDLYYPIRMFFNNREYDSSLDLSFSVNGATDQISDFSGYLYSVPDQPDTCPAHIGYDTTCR", -0.87],
  ["Aap arpt (Staphylococcus epidermidis) (protein) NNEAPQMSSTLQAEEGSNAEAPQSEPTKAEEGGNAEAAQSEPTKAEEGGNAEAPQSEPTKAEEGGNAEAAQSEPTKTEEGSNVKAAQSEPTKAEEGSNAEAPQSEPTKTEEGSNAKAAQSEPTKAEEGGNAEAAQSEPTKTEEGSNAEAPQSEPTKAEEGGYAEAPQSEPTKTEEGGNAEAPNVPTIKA", -1.72]
]}
